These entries and their values trace back to paper PMC4818746.

- EXPERIMENTAL TARGET: LRRK2-G2019S (Homo sapiens, UniProt Q5S007, G2019S)
- Sequence (Q5S007 whole entry G2019S): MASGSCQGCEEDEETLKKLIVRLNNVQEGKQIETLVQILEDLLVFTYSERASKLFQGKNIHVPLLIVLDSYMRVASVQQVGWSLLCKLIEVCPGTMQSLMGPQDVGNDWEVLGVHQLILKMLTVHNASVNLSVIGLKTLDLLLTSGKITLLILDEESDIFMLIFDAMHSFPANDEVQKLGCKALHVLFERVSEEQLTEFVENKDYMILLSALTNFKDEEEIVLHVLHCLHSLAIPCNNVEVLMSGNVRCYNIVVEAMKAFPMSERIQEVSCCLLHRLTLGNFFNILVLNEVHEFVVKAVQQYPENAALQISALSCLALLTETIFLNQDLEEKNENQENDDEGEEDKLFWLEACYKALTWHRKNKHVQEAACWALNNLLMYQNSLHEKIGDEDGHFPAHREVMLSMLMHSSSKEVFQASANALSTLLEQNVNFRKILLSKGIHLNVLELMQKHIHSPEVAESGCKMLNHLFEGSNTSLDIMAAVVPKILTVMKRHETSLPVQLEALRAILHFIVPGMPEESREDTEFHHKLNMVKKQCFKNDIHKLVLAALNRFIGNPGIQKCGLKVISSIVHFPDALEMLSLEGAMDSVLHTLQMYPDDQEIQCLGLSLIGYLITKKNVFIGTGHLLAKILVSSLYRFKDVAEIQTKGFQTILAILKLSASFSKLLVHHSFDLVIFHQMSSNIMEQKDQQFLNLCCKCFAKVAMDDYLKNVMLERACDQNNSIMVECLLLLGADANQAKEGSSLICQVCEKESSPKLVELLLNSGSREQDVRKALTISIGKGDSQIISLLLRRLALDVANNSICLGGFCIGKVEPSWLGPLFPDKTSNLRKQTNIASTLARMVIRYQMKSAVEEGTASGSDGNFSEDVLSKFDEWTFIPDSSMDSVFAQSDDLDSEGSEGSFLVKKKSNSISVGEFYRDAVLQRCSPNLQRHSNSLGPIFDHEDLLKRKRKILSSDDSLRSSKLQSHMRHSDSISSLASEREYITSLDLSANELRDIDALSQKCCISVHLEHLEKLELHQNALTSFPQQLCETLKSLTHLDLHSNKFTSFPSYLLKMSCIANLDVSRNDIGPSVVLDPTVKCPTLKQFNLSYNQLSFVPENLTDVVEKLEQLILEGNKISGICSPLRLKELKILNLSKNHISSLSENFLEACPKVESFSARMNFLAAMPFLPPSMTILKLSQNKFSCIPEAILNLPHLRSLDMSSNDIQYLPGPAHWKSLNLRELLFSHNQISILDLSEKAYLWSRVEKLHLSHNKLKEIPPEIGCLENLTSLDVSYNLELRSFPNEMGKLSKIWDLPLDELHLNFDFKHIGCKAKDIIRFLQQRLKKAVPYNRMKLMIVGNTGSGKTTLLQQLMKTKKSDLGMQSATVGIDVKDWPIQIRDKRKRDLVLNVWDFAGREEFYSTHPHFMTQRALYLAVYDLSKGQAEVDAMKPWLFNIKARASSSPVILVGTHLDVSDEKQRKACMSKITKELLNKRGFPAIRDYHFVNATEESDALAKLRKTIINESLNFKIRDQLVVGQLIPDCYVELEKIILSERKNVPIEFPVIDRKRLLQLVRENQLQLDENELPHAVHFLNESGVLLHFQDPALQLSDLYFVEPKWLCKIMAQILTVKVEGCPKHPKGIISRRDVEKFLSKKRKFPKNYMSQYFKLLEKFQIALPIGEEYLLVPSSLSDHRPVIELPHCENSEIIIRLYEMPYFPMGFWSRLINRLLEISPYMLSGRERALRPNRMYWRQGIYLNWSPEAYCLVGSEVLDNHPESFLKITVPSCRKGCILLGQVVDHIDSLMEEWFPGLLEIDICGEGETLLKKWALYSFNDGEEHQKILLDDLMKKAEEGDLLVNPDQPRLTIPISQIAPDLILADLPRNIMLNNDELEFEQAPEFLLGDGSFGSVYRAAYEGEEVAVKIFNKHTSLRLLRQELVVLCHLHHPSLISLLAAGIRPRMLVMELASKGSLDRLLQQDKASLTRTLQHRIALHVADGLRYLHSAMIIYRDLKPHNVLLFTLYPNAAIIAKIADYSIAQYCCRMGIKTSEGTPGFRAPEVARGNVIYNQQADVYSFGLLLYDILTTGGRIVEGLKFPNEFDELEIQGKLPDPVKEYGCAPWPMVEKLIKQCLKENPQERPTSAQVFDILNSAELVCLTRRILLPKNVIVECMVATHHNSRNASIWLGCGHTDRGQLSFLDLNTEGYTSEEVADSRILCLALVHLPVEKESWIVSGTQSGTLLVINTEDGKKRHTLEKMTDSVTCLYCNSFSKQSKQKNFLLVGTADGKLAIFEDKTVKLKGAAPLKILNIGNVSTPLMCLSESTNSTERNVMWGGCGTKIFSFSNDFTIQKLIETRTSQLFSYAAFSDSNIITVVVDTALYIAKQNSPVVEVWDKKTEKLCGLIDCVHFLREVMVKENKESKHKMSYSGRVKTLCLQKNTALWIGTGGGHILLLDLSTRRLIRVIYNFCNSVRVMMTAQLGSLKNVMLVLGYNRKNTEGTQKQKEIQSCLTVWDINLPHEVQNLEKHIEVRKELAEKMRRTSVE
- PROTOCOL SUMMARY: Radiometric kinase assay, LRRK2-G2019S activity on MBP
- EXPERIMENTAL SETUP: IC50 against LRRK2-G2019S, MBP substrate
pIC50: −log10 of the molar value.

{"columns": ["MOLECULE", "EXPERIMENTAL TARGET", "pIC50"],
 "data": [
  ["CC1=CC(=O)C(C(C)C)=CC1=O [Thymoquinone]", "LRRK2-G2019S (Homo sapiens, UniProt Q5S007, G2019S)", 6.90]
]}
